species: Rattus norvegicus; assay: Open TG-GATES - Regimen: Single; assay type: toxicity, organism-based, Sprague-Dawley; parameters: regimen Single, gender Male, age 6 weeks; settings: in vivo, po, 0 mg/kg, 6 h, tissue Blood, route gavage, dose level Control
MEASUREMENT LABEL: Hb (g/dL)
Dear colleague, please return just the value in g/dL, with no unit written.

# Hb lookup, item Cc1cccc(Nc2ccccc2C(=O)O)c1C 13.2

# Hb lookup, item CN1C(C(=O)Nc2ccccn2)=C(O)c2sc(Cl)cc2S1(=O)=O 13.2

# Hb lookup, item C1CCC(C(CC2CCCCN2)C2CCCCC2)CC1 (centres undefined) 13.2

# Hb lookup, item COc1cc([C@@H]2c3cc4c(cc3[C@@H](O[C@@H]3O[C@@H]5CO[C@@H](C)O[C@H]5[C@H](O)[C@H]3O)[C@H]3COC(=O)[C@H]23)OCO4)cc(OC)c1O [ETOPOSIDE] 13.4

# Hb lookup, item Clc1c(Cl)c(Cl)c(Cl)c(Cl)c1Cl 13.5

# Hb lookup, item CN(C)[C@@H]1C(O)=C(C(N)=O)C(=O)[C@@]2(O)C(O)=C3C(=O)c4c(O)cccc4[C@@](C)(O)[C@H]3C[C@@H]12 13.1

# Hb lookup, item CCOC(=O)[C@H](CCc1ccccc1)N[C@@H](C)C(=O)N1CCC[C@H]1C(=O)O 13.2

# Hb lookup, item CC(CN1c2ccccc2Sc2ccccc21)N(C)C (centres undefined) 13.3

# Hb lookup, item C#C[C@]1(O)CC[C@H]2[C@@H]3CCC4=Cc5oncc5C[C@]4(C)[C@H]3CC[C@@]21C 13.1

----------
species on record: Rattus norvegicus; assay: Open TG-GATES - Regimen: Single; format: toxicity, organism-based, Sprague-Dawley; design: regimen Single, gender Male, age 6 weeks; conditions: in vivo, po, 0 mg/kg, 24 h, tissue Plasma, route gavage, dose level Control
MEASUREMENT LABEL: TC (mg/dL)
Dear colleague, please return just the value in mg/dL, with no unit written.

# TC lookup, item CN1C(C(=O)Nc2ccccn2)=C(O)c2sc(Cl)cc2S1(=O)=O 69.2

# TC lookup, item CC(=O)Nc1nnc(S(N)(=O)=O)s1 [ACETAZOLAMIDE] 71.8

# TC lookup, item Cc1cccc(Nc2ccccc2C(=O)O)c1C 74.6

# TC lookup, item CCOC(=O)[C@H](CCc1ccccc1)N[C@@H](C)C(=O)N1CCC[C@H]1C(=O)O 80

# TC lookup, item CC(CN1c2ccccc2Sc2ccccc21)N(C)C (stereo unspecified) 74.4

# TC lookup, item CN(C)[C@@H]1C(O)=C(C(N)=O)C(=O)[C@@]2(O)C(O)=C3C(=O)c4c(O)cccc4[C@@](C)(O)[C@H]3C[C@@H]12 84.2

# TC lookup, item O=[N+]([O-])c1ccc2c(c1)Cc1ccccc1-2 79.8

# TC lookup, item C1CCC(C(CC2CCCCN2)C2CCCCC2)CC1 (stereo unspecified) 76.8

# TC lookup, item COc1cc([C@@H]2c3cc4c(cc3[C@@H](O[C@@H]3O[C@@H]5CO[C@@H](C)O[C@H]5[C@H](O)[C@H]3O)[C@H]3COC(=O)[C@H]23)OCO4)cc(OC)c1O [ETOPOSIDE] 92.2

# TC lookup, item C#C[C@]1(O)CC[C@H]2[C@@H]3CCC4=Cc5oncc5C[C@]4(C)[C@H]3CC[C@@]21C 74.6

# TC lookup, item Clc1c(Cl)c(Cl)c(Cl)c(Cl)c1Cl 70.2

----------
Give measured LDH for each item. Keep answers brief.
species: Rattus norvegicus; assay: Open TG-GATES - Regimen: Daily Repeat; format: toxicity, organism-based, Sprague-Dawley; design: regimen Daily Repeat, gender Male, age 6 weeks; conditions: in vivo, po, 0 mg/kg, […], tissue Plasma, route gavage, dose level Control, time 28 day
Record the result as a number with its unit.

# LDH lookup, item CN1C(C(=O)Nc2ccccn2)=C(O)c2sc(Cl)cc2S1(=O)=O 173.2 IU/L

# LDH lookup, item CCOC(=O)[C@H](CCc1ccccc1)N[C@@H](C)C(=O)N1CCC[C@H]1C(=O)O 61 IU/L

# LDH lookup, item CC(=O)Nc1nnc(S(N)(=O)=O)s1 [ACETAZOLAMIDE] 138.8 IU/L

# LDH lookup, item C#C[C@]1(O)CC[C@H]2[C@@H]3CCC4=Cc5oncc5C[C@]4(C)[C@H]3CC[C@@]21C 141.6 IU/L

# LDH lookup, item O=C(O)Cc1ccccc1Nc1c(Cl)cccc1Cl 146.4 IU/L

# LDH lookup, item CN(C)[C@@H]1C(O)=C(C(N)=O)C(=O)[C@@]2(O)C(O)=C3C(=O)c4c(O)cccc4[C@@](C)(O)[C@H]3C[C@@H]12 91.4 IU/L

# LDH lookup, item C1CCC(C(CC2CCCCN2)C2CCCCC2)CC1 (stereo not given) 148.4 IU/L

# LDH lookup, item Clc1c(Cl)c(Cl)c(Cl)c(Cl)c1Cl 102 IU/L

# LDH lookup, item Cc1cccc(Nc2ccccc2C(=O)O)c1C 111.2 IU/L

# LDH lookup, item CC(CN1c2ccccc2Sc2ccccc21)N(C)C (stereo not given) 160.6 IU/L

----------
species on record: Rattus norvegicus; test: Open TG-GATES - Regimen: Daily Repeat; assay type: toxicity, organism-based, Sprague-Dawley; design: regimen Daily Repeat, gender Male, age 6 weeks; conditions: in vivo, po, 0 mg/kg, […], tissue Kidney, route gavage, dose level Control, time 14 day
MEASUREMENT LABEL: KIDNEY_R (g)
Dear colleague, please return just the value in g, with no unit written.

# KIDNEY_R lookup, item CCOC(=O)[C@H](CCc1ccccc1)N[C@@H](C)C(=O)N1CCC[C@H]1C(=O)O 1.3

# KIDNEY_R lookup, item CC(=O)Nc1nnc(S(N)(=O)=O)s1 [ACETAZOLAMIDE] 1.2

# KIDNEY_R lookup, item Cc1cccc(Nc2ccccc2C(=O)O)c1C 1.2

# KIDNEY_R lookup, item C#C[C@]1(O)CC[C@H]2[C@@H]3CCC4=Cc5oncc5C[C@]4(C)[C@H]3CC[C@@]21C 1.4

# KIDNEY_R lookup, item CC(CN1c2ccccc2Sc2ccccc21)N(C)C (stereo not given) 1.2

----------
species: Rattus norvegicus; test: Open TG-GATES - Regimen: Single; type: toxicity, organism-based, Sprague-Dawley; set-up: regimen Single, gender Male, age 6 weeks; conditions: in vivo, po, 0 mg/kg, 6 h, tissue Blood, route gavage, dose level Control
MEASUREMENT LABEL: WBC (x10_2/uL)
Dear colleague, please return just the value in x10_2/uL, with no unit written.

# WBC lookup, item C1CCC(C(CC2CCCCN2)C2CCCCC2)CC1 (stereo not given) 75.5

# WBC lookup, item CCOC(=O)[C@H](CCc1ccccc1)N[C@@H](C)C(=O)N1CCC[C@H]1C(=O)O 118.4

# WBC lookup, item Clc1c(Cl)c(Cl)c(Cl)c(Cl)c1Cl 106.3

# WBC lookup, item CN1C(C(=O)Nc2ccccn2)=C(O)c2sc(Cl)cc2S1(=O)=O 109.1

# WBC lookup, item C#C[C@]1(O)CC[C@H]2[C@@H]3CCC4=Cc5oncc5C[C@]4(C)[C@H]3CC[C@@]21C 105

----------
species on record: Rattus norvegicus; assay: Open TG-GATES - Regimen: Single; format: toxicity, organism-based, Sprague-Dawley; parameters: regimen Single, gender Male, age 6 weeks; settings: in vivo, po, 0 mg/kg, 3 h, tissue Blood, route gavage, dose level Control
Give measured Plat for each item. Keep answers brief.
Record the result as a number with its unit.

# Plat lookup, item CN(C)[C@@H]1C(O)=C(C(N)=O)C(=O)[C@@]2(O)C(O)=C3C(=O)c4c(O)cccc4[C@@](C)(O)[C@H]3C[C@@H]12 [TETRACYCLINE] 105.5 x10_4/uL

# Plat lookup, item CN1C(C(=O)Nc2ccccn2)=C(O)c2sc(Cl)cc2S1(=O)=O [LORNOXICAM] 135.7 x10_4/uL

# Plat lookup, item COc1cc([C@@H]2c3cc4c(cc3[C@@H](O[C@@H]3O[C@@H]5CO[C@@H](C)O[C@H]5[C@H](O)[C@H]3O)[C@H]3COC(=O)[C@H]23)OCO4)cc(OC)c1O [ETOPOSIDE] 113.5 x10_4/uL

# Plat lookup, item Clc1c(Cl)c(Cl)c(Cl)c(Cl)c1Cl [PERCHLOROBENZENE] 122 x10_4/uL

# Plat lookup, item C1CCC(C(CC2CCCCN2)C2CCCCC2)CC1 (stereo not given) [PERHEXILINE] 117.8 x10_4/uL

# Plat lookup, item C#C[C@]1(O)CC[C@H]2[C@@H]3CCC4=Cc5oncc5C[C@]4(C)[C@H]3CC[C@@]21C [DANAZOL] 111.7 x10_4/uL

# Plat lookup, item CC(CN1c2ccccc2Sc2ccccc21)N(C)C (stereo not given) [PROMETHAZINE] 117.1 x10_4/uL

# Plat lookup, item CC(=O)Nc1nnc(S(N)(=O)=O)s1 [ACETAZOLAMIDE] 118.6 x10_4/uL

# Plat lookup, item Cc1cccc(Nc2ccccc2C(=O)O)c1C [MEFENAMIC ACID] 117.6 x10_4/uL

# Plat lookup, item CCOC(=O)[C@H](CCc1ccccc1)N[C@@H](C)C(=O)N1CCC[C@H]1C(=O)O 115.4 x10_4/uL
